molecular target: Human MET (residues 956-1390) (Homo sapiens (Human)); assay: Human Met kinase assay, HTRF KinEase (Example D-2); type: biochemical; conditions: protocol of Example D-2 (other compounds); read-out: c-Met IC50
Sequence (P08581 956-1390): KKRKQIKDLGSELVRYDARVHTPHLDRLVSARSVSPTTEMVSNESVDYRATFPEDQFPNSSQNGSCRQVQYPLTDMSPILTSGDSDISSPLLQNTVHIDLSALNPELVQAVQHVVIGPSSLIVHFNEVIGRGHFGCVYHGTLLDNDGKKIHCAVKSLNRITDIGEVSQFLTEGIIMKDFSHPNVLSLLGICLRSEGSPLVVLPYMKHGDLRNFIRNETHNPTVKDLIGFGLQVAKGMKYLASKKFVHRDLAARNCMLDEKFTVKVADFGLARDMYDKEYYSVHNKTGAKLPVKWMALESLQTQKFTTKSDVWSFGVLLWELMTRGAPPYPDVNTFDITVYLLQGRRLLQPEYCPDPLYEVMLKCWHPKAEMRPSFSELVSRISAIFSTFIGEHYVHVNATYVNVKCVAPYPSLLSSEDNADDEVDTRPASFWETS
pIC50: −log10 of the molar value.
RECORDED METRIC: pIC50

{"COMPOUND": "COc1cc2nccc(Oc3ccc(NC(=O)c4cn(C)c(CO)c(-c5ccc(F)cc5)c4=O)cc3)c2nc1OC [Compound 221]", "pIC50": "> 7.00"}
{"COMPOUND": "COc1ccc2nccc(Oc3ccc(NC(=O)c4n[nH]c(C)c(-c5ccc(F)cc5)c4=O)cc3F)c2n1 [Compound 89]", "pIC50": "> 7.00"}
{"COMPOUND": "COc1ccc2nccc(Oc3ccc(NC(=O)c4n[nH]c(C)c(-c5ccc(F)cc5C)c4=O)cc3F)c2n1 [Compound 230]", "pIC50": "> 7.00"}

Fill in pIC50 for record COc1ccc2nccc(Oc3ccc(NC(=O)c4c(C)cc(C)n(-c5ccc(F)cc5C)c4=O)cc3F)c2n1 [Compound 296]
6.52 to 7.00

Annotate the compound COc1cc2nccc(Oc3ccc(NC(=O)c4cn(OC)cc(-c5ccc(F)cc5)c4=O)cc3F)c2nc1OC [Compound 126] with its measured pIC50.
> 7.00

Query pIC50 for Cc1cc2nccc(Oc3ccc(NC(=O)c4cnc(C)c(-c5ccc(F)cc5)c4O)cc3F)c2nc1F [Compound 426]
> 7.00

Annotate the compound COc1cc2nccc(Oc3ncc(NC(=O)c4cn(-c5ccn(C)n5)cc(-c5ccc(F)cc5)c4=O)cc3F)c2cc1OC [Compound 402] with its measured pIC50.
> 7.00

Look up pIC50 of CCn1cc(C(=O)Nc2ccc(Oc3ccnc4cc(OC)c(OC)nc34)c(F)c2)c(=O)c(-c2ccc(F)cc2)c1C [Compound 63] and report it.
> 7.00

Give the reported value of pIC50 for this record: COc1cc2nccc(Oc3ccc(NC(=O)c4nn(C)c(C)c(-c5ccc(F)cc5)c4=O)cc3F)c2nc1OC [Compound 92]
> 7.00

Answer with reported pIC50 of Cc1cc2nccc(Oc3ccc(NC(=O)c4cnc(C)c(-c5ccc(F)cc5)c4O)cc3F)c2nc1OCCCN1CCOCC1 [Compound 438]
> 7.00

Determine its reported pIC50: COCc1nc(C)c(-c2ccc(F)cc2)c(O)c1C(=O)Nc1ccc(Oc2ccnc3cc(OC)c(OC)nc23)cc1 [Compound 190]
> 7.00

Kindly indicate its recorded pIC50. Item: COc1ccc2nccc(Oc3ccc(NC(=O)c4ccc(C)n(-c5ccc(F)cc5C)c4=O)cc3)c2n1 [Compound 276]
6.52 to 7.00

Identify measured pIC50 associated with COc1ccc2nccc(Oc3ccc(NC(=O)c4cn(C)c(C)c(-c5ccc(F)cc5C)c4=O)cc3F)c2n1 [Compound 183]
> 7.00

Hello, please tell me recorded pIC50 for this one: COc1cnc2c(Oc3ccc(NC(=O)c4nn(C)c(C)c(-c5ccc(F)cc5)c4=O)cc3F)ccnc2c1 [Compound 250]
> 7.00
